# STUDY_SYSTEM: EGFR exon 20 ASV insertion (V769_D770insASV) (Homo sapiens, UniProt P00533, INS769ASV)
# Construct: expressed in transfected cells; host or cells: Ba/F3 (murine pro-B) cells, lentiviral transduction with pLVX-IRES puro
# Sequence (P00533 with tags, fused parts or gaps INS769ASV): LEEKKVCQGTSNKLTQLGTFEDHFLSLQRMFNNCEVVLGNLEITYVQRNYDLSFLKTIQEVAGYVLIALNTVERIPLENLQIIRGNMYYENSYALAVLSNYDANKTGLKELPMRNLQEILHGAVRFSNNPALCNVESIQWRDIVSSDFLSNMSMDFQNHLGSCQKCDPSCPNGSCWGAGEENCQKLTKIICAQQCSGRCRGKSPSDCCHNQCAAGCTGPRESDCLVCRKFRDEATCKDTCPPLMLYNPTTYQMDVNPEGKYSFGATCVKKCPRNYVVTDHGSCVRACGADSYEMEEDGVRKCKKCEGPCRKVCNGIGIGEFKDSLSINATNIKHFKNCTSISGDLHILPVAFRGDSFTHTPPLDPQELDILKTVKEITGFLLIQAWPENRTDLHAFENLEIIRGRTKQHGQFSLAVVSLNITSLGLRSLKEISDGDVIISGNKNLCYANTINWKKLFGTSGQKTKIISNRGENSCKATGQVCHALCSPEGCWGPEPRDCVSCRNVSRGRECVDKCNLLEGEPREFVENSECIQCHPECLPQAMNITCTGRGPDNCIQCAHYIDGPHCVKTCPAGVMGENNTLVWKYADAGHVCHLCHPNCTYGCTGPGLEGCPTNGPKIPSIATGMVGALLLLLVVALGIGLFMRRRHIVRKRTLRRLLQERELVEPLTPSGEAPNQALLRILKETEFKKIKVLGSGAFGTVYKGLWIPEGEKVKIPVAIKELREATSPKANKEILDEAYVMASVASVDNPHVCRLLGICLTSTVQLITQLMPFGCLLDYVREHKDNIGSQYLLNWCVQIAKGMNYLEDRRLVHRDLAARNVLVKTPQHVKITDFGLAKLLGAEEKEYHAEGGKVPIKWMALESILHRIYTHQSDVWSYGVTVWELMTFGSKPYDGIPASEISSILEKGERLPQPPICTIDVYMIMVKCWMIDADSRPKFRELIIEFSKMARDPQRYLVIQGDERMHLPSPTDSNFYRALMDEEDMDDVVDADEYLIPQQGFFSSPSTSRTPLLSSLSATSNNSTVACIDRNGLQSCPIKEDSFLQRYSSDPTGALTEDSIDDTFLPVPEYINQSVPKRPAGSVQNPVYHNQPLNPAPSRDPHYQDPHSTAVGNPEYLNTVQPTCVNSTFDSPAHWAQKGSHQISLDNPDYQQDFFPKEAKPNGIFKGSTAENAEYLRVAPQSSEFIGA
# EXPERIMENT_SUMMARY: Ba/F3-EGFR-Exon20-ASV cell anti-proliferation assay (MTS, CellTiter 96 AQueous One)
# Format: cell-based
# STUDY_CONDITIONS: Ba/F3-EGFR-Exon20-ASV cells, 72 h, MTS signal
pIC50: −log10 of the molar value.
ENDPOINT_NAME: pIC50

Please state pIC50 for every molecule in the list that follows.
1. C=CC(=O)Nc1cc(Nc2nccc(-c3c4n(c5ccccc35)CC(O)CC4)n2)c(OC)cc1N(C)CCN(C)C (stereo not shown)
2. C=CC(=O)Nc1cc(Nc2nccc(-n3c4c(c5ccccc53)CC(O)CC4)n2)c(OC)cc1N(C)CCN(C)C (stereo not shown)

1: > 7.00; 2: > 7.00

Please state pIC50 for every molecule in the list that follows.
1. C=CC(=O)Nc1cc(Nc2nccc(-c3c4n(c5ccccc35)CC3OC(C)(C)OC3C4)n2)c(OC)cc1N(C)CCN(C)C (stereo not shown)
2. C=CC(=O)Nc1cc(Nc2nccc(-c3c4n(c5ccccc35)CC(O)C(O)C4)n2)c(OC)cc1N(C)CCN(C)C (stereo not shown)
3. C=CC(=O)Nc1cc(Nc2ncc(Cl)c(-c3c4n(c5ccccc35)CCOC4)n2)c(OC)cc1N(C)CCN(C)C
4. C=CC(=O)Nc1cc(Nc2nccc(-c3c4n(c5ccccc35)CC(OC)CC4)n2)c(OC)cc1N(C)CCN(C)C (stereo not shown)

> 7.00
> 7.00
< 6.00
> 7.00

###

Could you please report measured IC50 for the items listed next?
# STUDY_SYSTEM: Her2 exon 20 YVMA insertion (A775_G776ins YVMA) (Homo sapiens, UniProt P04626, INS775YVMA)
# Sequence (P04626 with tags, fused parts or gaps INS775YVMA): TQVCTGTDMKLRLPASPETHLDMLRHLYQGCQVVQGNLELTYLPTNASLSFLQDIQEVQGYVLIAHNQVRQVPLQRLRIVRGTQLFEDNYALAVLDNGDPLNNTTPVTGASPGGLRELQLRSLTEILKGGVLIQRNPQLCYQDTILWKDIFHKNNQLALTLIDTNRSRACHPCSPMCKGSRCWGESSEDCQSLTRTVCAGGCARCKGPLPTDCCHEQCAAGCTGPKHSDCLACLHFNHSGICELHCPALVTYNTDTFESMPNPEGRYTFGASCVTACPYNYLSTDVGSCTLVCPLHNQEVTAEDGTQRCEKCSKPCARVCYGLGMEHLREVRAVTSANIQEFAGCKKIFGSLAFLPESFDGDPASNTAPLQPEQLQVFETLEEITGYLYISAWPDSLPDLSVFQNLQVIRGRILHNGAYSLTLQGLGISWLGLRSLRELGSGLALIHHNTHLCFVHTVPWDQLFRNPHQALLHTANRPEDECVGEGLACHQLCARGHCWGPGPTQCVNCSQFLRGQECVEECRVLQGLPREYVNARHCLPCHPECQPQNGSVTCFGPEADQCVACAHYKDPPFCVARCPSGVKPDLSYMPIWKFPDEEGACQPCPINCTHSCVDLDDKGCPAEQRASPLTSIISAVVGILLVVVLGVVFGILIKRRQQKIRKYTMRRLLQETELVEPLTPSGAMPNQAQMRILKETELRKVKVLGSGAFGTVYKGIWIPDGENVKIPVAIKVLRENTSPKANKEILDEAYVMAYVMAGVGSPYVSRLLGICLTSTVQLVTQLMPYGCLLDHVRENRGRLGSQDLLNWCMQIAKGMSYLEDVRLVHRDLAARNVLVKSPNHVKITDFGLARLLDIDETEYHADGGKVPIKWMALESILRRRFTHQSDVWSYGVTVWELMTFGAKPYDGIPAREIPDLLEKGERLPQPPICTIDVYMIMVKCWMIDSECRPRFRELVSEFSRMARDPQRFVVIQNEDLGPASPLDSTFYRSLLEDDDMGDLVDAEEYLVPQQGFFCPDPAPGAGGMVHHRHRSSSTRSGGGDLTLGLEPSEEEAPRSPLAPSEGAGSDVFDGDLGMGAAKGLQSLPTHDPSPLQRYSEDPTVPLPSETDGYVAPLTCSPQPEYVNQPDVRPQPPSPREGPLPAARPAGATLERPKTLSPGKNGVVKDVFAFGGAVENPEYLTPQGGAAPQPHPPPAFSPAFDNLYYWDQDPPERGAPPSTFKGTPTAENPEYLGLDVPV
# EXPERIMENT_SUMMARY: Ba/F3-Her2 Exon20 YVMA cell anti-proliferation assay (MTS)
# STUDY_CONDITIONS: Ba/F3-Her2 Exon20 YVMA cells, 72 h, MTS signal

See these solved cases before continuing.
MOLECULE	STUDY_SYSTEM	VALUE_REPORTED
C=CC(=O)Nc1cc(Nc2nccc(-c3c4n(c5ccccc35)CCN(C)C4=O)n2)c(OC)cc1N(C)CCN(C)C	Her2 exon 20 YVMA insertion (A775_G776ins YVMA) (Homo sapiens, UniProt P04626, INS775YVMA)	> 1000 nM
C=CC(=O)Nc1cc(Nc2nccc(-c3c4n(c5ccccc35)CC(O)C(O)C4)n2)c(OC)cc1N(C)CCN(C)C (stereo not shown)	Her2 exon 20 YVMA insertion (A775_G776ins YVMA) (Homo sapiens, UniProt P04626, INS775YVMA)	100 to 500 nM
C=CC(=O)Nc1cc(Nc2nccc(-c3c4n(c5ccccc35)CC(O)CC4)n2)c(OC)cc1N(C)CCN(C)C (stereo not shown)	Her2 exon 20 YVMA insertion (A775_G776ins YVMA) (Homo sapiens, UniProt P04626, INS775YVMA)	100 to 500 nM
C=CC(=O)Nc1cc(Nc2nccc(-c3c4n(c5ccccc35)CC(OC)CC4)n2)c(OC)cc1N(C)CCN(C)C (stereo not shown)	Her2 exon 20 YVMA insertion (A775_G776ins YVMA) (Homo sapiens, UniProt P04626, INS775YVMA)	100 to 500 nM
C=CC(=O)Nc1cc(Nc2nccc(-n3c4c(c5ccccc53)CC(O)CC4)n2)c(OC)cc1N(C)CCN(C)C (stereo not shown)	Her2 exon 20 YVMA insertion (A775_G776ins YVMA) (Homo sapiens, UniProt P04626, INS775YVMA)	< 100 nM

Please state IC50 for every molecule in the list that follows.
1. C=CC(=O)Nc1cc(Nc2ncc(Cl)c(-c3c4n(c5ccccc35)CCOC4)n2)c(OC)cc1N(C)CCN(C)C
2. C=CC(=O)Nc1cc(Nc2nccc(-c3c4n(c5ccccc35)CCOC4)n2)c(OC)cc1N(C)CCN(C)C
3. C=CC(=O)Nc1cc(Nc2nccc(-c3c4n(c5ccccc35)CCCC4)n2)c(OC)cc1N(C)CCN(C)C
4. C=CC(=O)Nc1cc(Nc2ncc(C#N)c(-c3c4n(c5ccccc35)CCOC4)n2)c(OC)cc1N(C)CCN(C)C
5. C=CC(=O)Nc1cc(Nc2nccc(-c3c4n(c5ccccc35)CC3OC(C)(C)OC3C4)n2)c(OC)cc1N(C)CCN(C)C (stereo not shown)

> 1000 nM
100 to 500 nM
100 to 500 nM
100 to 500 nM
< 100 nM

Reference source: patent US20210323976A1
